# MEASUREMENT TARGET: PD-L1 His protein / PD-1 Fc protein (Homo sapiens (Human), UniProt Q9NZQ7)
# Sequence (Q9NZQ7 19-238): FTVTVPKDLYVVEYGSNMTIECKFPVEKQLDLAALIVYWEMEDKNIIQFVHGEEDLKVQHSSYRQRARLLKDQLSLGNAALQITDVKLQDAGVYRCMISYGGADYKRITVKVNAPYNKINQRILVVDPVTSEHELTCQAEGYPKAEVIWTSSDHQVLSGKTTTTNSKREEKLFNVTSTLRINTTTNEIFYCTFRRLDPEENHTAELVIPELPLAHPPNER
# ASSAY INFO: HTRF Assay (PD-1/PD-L1 interaction)
# Assay type: binding
# PARTICULARS: PD-L1 His 6 nM, PD-1 Fc 6 nM
List of IC50 values.
# value in nM; strip the unit string

>  <COMPOUND STRUCTURE STRING>
CNCc1ccc(-c2cccc(-c3ccnc(-c4ccc(CNCC56CC(C(=O)O)(C5)C6)c(OC)c4)c3Cl)c2Cl)nc1OC

>  <IC50 / nM>
0.23

$$$$
>  <COMPOUND STRUCTURE STRING>
COc1nc(-c2cccc(-c3cncc(-c4ccc(CNC5CCN(C(C)=O)CC5)c(OC)n4)c3Cl)c2Cl)ccc1CNC1CCN(C(C)=O)CC1

>  <IC50 / nM>
0.19

$$$$
>  <COMPOUND STRUCTURE STRING>
COc1nc(-c2cccc(-c3ccnc(-c4cc(OC)c5nc(CN[C@H]6C[C@](C)(O)C6)cn5c4)c3Cl)c2Cl)ccc1CNC[C@@H]1CCC(=O)N1

>  <IC50 / nM>
0.813

$$$$
>  <COMPOUND STRUCTURE STRING>
COc1cc(-c2nccc(-c3cccc(-c4ccc(CNC5CCOCC5)c(OC)n4)c3Cl)c2Cl)ccc1CN1CC2(CCOCC2)C1

>  <IC50 / nM>
2.51

$$$$
>  <COMPOUND STRUCTURE STRING>
COc1nc(-c2cccc(-c3ccnc(-c4ccc(CN5CC6(CNC(=O)C6)C5)c(OC(F)F)c4)c3Cl)c2Cl)ccc1CNC1CCOCC1

>  <IC50 / nM>
0.29

$$$$

Kindly review the next compound as well.
Reported IC50 of "COc1cc(-c2nccc(-c3ccnc(-c4cc(F)c(CNC[C@@H]5CCC(=O)N5)c(OC)c4)c3Cl)c2Cl)cc(F)c1CNC[C@@H]1CCC(=O)N1" : 0.1

====

List of EC50 values.
# MEASUREMENT TARGET: UniProt Q9NZQ7
# ASSAY INFO: T cell activation luciferase reporter cell culture system (T Cell Activation Assay)
# Type: cell-based
# PARTICULARS: luciferase reporter assay; PD-L1 aAPC/CHO-K1 cells with PD-1 effector Jurkat T cells

Solved cases (5 shown):
>  <COMPOUND>
COc1nc(-c2cccc(-c3ccnc(-c4cnc5c(CNC[C@@H]6CCC(=O)N6)cn(C)c5c4)c3Cl)c2Cl)ccc1CNC[C@@H]1CCC(=O)N1

>  <EC50>
77.7 nM

$$$$
>  <COMPOUND>
COc1cc(-c2nccc(-c3cccc(-c4ccc(CNC5CCOCC5)c(OC)n4)c3Cl)c2Cl)ccc1CN1CC2(C1)CN(C(C)=O)C2

>  <EC50>
18.5 nM

$$$$
>  <COMPOUND>
COc1nc(-c2cccc(-c3ccnc(-c4cc(OC)c5nc(CNC[C@@H]6CCC(=O)N6)nn5c4)c3Cl)c2Cl)ccc1CNC(C)C

>  <EC50>
865 nM

$$$$
>  <COMPOUND>
COc1cc(-c2nccc(-c3cccc(-c4ccc(CNC5CCOCC5)c(OC)n4)c3Cl)c2C#N)ccc1CNC1CCOCC1

>  <EC50>
37.8 nM

$$$$
>  <COMPOUND>
COc1cc(-c2nccc(-c3cccc(-c4ccc(CN5CC6(CNC(=O)C6)C5)c(OC)n4)c3Cl)c2Cl)cc2c1CN(CCCF)CC2

>  <EC50>
31 nM

$$$$

# EC50 measured on UniProt Q9NZQ7 for item "COc1nc(-c2cccc(-c3ccnc(-c4cc(F)c5c(c4)CCN(CC(C)(C)O)C5)c3Cl)c2Cl)ccc1CNC[C@@H]1CCC(=O)N1" = 171 nM

# EC50 measured on UniProt Q9NZQ7 for item "COc1cc(-c2nccc(-c3cccc(-c4ccc(CNC5CCN(C(C)=O)CC5)c(OC)n4)c3Cl)c2Cl)ccc1CN1CCC(CO)CC1" = 35.1 nM

# EC50 measured on UniProt Q9NZQ7 for item "CNCc1ccc(-c2cccc(-c3ccnc(-c4ccc(CN5CC6(CC(C(=O)O)C6)C5)c(OC)c4)c3Cl)c2Cl)nc1OC" = 31.3 nM

# EC50 measured on UniProt Q9NZQ7 for item "COc1nc(-c2cccc(-c3ccnc(-c4cnc5c(CN6CC7(CNC(=O)C7)C6)cn(C)c5c4)c3Cl)c2Cl)ccc1CNC[C@@H]1CCC(=O)N1" = 73.8 nM

# EC50 measured on UniProt Q9NZQ7 for item COc1nc(-c2cccc(-c3ccnc(-c4ccc5c(c4)N(C)CCNC5)c3Cl)c2Cl)ccc1CNCC(C)NC(C)=O (stereo not drawn) = 172 nM

# EC50 measured on UniProt Q9NZQ7 for item "COc1cc(-c2nccc(-c3cccc(-c4ccc(CNCCO)c(OC)n4)c3Cl)c2Cl)cc2c1CN(CCC1CCNCC1)CC2" = 142 nM

Values from patent US20240246964A1
